Test: Biodistribution (γ-counter)
Assay type: in vivo, BALB/C nude mice
Conditions: male, BALB/C nude, mouse, tumor and liver, iv, total radioactivity; 30 min p.i.; mean ± SD, n = 3; read-out: Tumor/Liver ratio
Peptide text beside a SMILES is read from it. * marks the point of attachment. NOTA = O=C(O)CN1CCN(CC(=O)O)CCN(CC(=O)*)CC1; AEEEA = NCCOCCOCCOCC(=O)O
recorded.metric: tissue to tissue ratio at 0.5 h

compound	value.observed
CC[C@H](C)[C@H](NC(=O)[C@H](CCCNC(=N)N)NC(=O)CNC(=O)[C@H](CCC(=O)O)NC(=O)[C@H](CC(N)=O)NC(=O)[C@H](Cc1ccc(O)cc1)NC(=O)[C@H](CCCNC(=N)N)NC(=O)[C@H](Cc1ccc(O)cc1)NC(=O)[C@H](Cc1c[nH]cn1)NC(=O)COCCOCCOCCNC(=O)CN1CCN(CC(=O)O)CCN(CC(=O)O)CC1)C(=O)N[C@@H](CCCNC(=N)N)C(=O)N[C@@H](CC(N)=O)C(=O)O [[^68Ga]Ga-HN11-1, metal not drawn] ({NOTA-AEEEA}-HYRYNEGRIRN-OH)	2.61

These measurements were taken from paper PMC11528066.
